Provenance of the data: ChEMBL document CHEMBL2375271

# System: A2780
# TEST_METHOD_NOTES: Cytotoxicity against human A2780 cells assessed as growth inhibition
# Assay type: functional, cell-based
Mark 1 only for IC50 values smaller than 400 nM; exact matches and larger values are -1.

Exercise: Below 400 nM on IC50? Entry C[C@]12CC[C@H]3[C@@H](CCC4=C[C@@H](O[C@@H]5O[C@H](CO)[C@@H](O)[C@H](O)[C@H]5O)CC[C@@]43C=O)[C@@]1(O)CC[C@@H]2c1ccc(=O)oc1
Solution: 1

Exercise: Another molecule: COc1ccc(C[C@@]2(O)COc3cc(OC)c(OC)c(OC)c3C2=O)cc1
Solution: 1

Exercise: Another molecule: COc1cc2c(c(OC)c1OC)C(=O)[C@@](O)(Cc1ccc(O)cc1)CO2
Solution: -1

Exercise: Another molecule: COc1cc2c(c(OC)c1OC)C(=O)[C@@H](Cc1ccc3c(c1)OCO3)CO2
Solution: -1

Exercise: Another molecule: C[C@@H]1O[C@@H](O[C@H]2[C@@H](O)[C@H](O[C@@H]3C=C4CC[C@@H]5[C@H](CC[C@]6(C)[C@@H](c7ccc(=O)oc7)CC[C@]56O)[C@@]4(C=O)CC3)O[C@@H](C)[C@@H]2O[C@@H]2O[C@H](CO)[C@@H](O)[C@H](O)[C@H]2O)[C@H](O)[C@H](O)[C@H]1O
Solution: 1

Exercise: Another molecule: CC(=O)O[C@@H]1C[C@]2(O)[C@@H]3CCC4=C[C@@H](O[C@@H]5O[C@H](CO)[C@@H](O)[C@H](O)[C@H]5O)CC[C@]4(C=O)[C@H]3CC[C@]2(C)[C@H]1c1ccc(=O)oc1
Solution: 1

Exercise: Another molecule: COc1ccc(C[C@H]2COc3cc(OC)c(OC)c(OC)c3C2=O)cc1
Solution: -1

Exercise: Another molecule: C[C@@H]1O[C@@H](O[C@H]2[C@@H](O)[C@H](O[C@@H]3C=C4CC[C@@H]5[C@H](CC[C@]6(C)[C@@H](c7ccc(=O)oc7)CC[C@]56O)[C@@]4(C)CC3)O[C@@H](C)[C@@H]2O[C@@H]2O[C@H](CO)[C@@H](O)[C@H](O)[C@H]2O)[C@H](O)[C@H](O)[C@H]1O
Solution: 1

Exercise: Another molecule: COc1ccc(C[C@H]2COc3cc(O)cc(O)c3C2=O)cc1
Solution: -1

Exercise: Another molecule: COc1cc2c(c(OC)c1OC)C(=O)[C@@](O)(Cc1ccc3c(c1)OCO3)CO2
Solution: 1
